Some molecules, each annotated with its measured CC50.
- Tested on: PANC-1
- test description: Cytotoxicity against human PANC1 cells after 48 hrs by SRB assay
- Type: functional
- condition summary: PANC-1, 48 h, read-out: LC50 (the source's name)

Known results for molecules:
smiles representation	target of assay	CC50
C/C=C1\NC(=O)[C@H](Cc2ccccc2)NC(=O)[C@@H](C(C)C)NC(=O)[C@@H]([C@H](C)CC)NC(=O)[C@H](NC(=O)[C@H](NC(=O)[C@H](CCCN)NC(=O)[C@H]2CCCN2C(=O)[C@H](NC(=O)[C@H](Cc2ccccc2)NC(=O)[C@@H](NC(=O)[C@H](NC(=O)CCCC(C)C)C(C)C)[C@@H](C)O)C(C)C)[C@H](C)CC)[C@H](C)OC(=O)[C@H](C(C)C)NC1=O	PANC-1	2.45 µM
C/C=C1\NC(=O)[C@H](Cc2ccccc2)NC(=O)[C@@H](C(C)C)NC(=O)[C@@H]([C@H](C)CC)NC(=O)[C@H](NC(=O)[C@H](NC(=O)[C@H](CCCC[N+](C)(C)C)NC(=O)[C@H]2CCCN2C(=O)[C@H](NC(=O)[C@@H](NC(=O)[C@@H](NC(=O)[C@H](NC(=O)CC[C@@H](C)CC)C(C)C)[C@@H](C)O)C(C)C)C(C)C)[C@H](C)CC)[C@H](C)OC(=O)[C@H](C(C)C)NC1=O	PANC-1	2.44 µM

Query :: Determine its reported CC50: `C/C=C1\NC(=O)[C@H](Cc2ccccc2)NC(=O)[C@@H](C(C)C)NC(=O)[C@@H]([C@H](C)CC)NC(=O)[C@H](NC(=O)[C@H](NC(=O)[C@H](CCCCN)NC(=O)[C@H]2CCCN2C(=O)[C@H](NC(=O)[C@@H](NC(=O)[C@@H](NC(=O)[C@H](NC(=O)CCCC(C)C)C(C)C)[C@@H](C)O)C(C)C)C(C)C)[C@H](C)CC)[C@H](C)OC(=O)[C@H](C(C)C)NC1=O`
Result :: 2.21 µM

Query :: Determine its reported CC50: `C/C=C1\NC(=O)[C@H](Cc2ccccc2)NC(=O)[C@@H](C(C)C)NC(=O)[C@@H]([C@H](C)CC)NC(=O)[C@H](NC(=O)[C@H](NC(=O)[C@H](CCCNC(=O)CCOCCOCCNC(=O)OCC2c3ccccc3-c3ccccc32)NC(=O)[C@H]2CCCN2C(=O)[C@H](NC(=O)[C@@H](NC(=O)[C@@H](NC(=O)[C@H](NC(=O)CCCC(C)C)C(C)C)[C@@H](C)O)C(C)C)C(C)C)[C@H](C)CC)[C@H](C)OC(=O)[C@H](C(C)C)NC1=O`
Result :: 0.141 µM

Query :: Determine its reported CC50: `C/C=C1\NC(=O)[C@H](Cc2ccccc2)NC(=O)[C@@H](C(C)C)NC(=O)[C@@H]([C@H](C)CC)NC(=O)[C@H](NC(=O)[C@H](NC(=O)[C@H](CCCN)NC(=O)[C@H]2CCCN2C(=O)[C@H](NC(=O)[C@@H](NC(=O)[C@@H](NC(=O)[C@H](NC(=O)CCCC(C)C)C(C)C)C(C)C)C(C)C)C(C)C)[C@H](C)CC)[C@H](C)OC(=O)[C@H](C(C)C)NC1=O`
Result :: 1.42 µM

Query :: Determine its reported CC50: `C/C=C1\NC(=O)[C@H](Cc2ccccc2)NC(=O)[C@@H](C(C)C)NC(=O)[C@@H]([C@H](C)CC)NC(=O)[C@H](NC(=O)[C@H](NC(=O)[C@H](CCCN)NC(=O)[C@H]2CCCN2C(=O)[C@H](NC(=O)[C@@H](NC(=O)[C@H](CC(C)C)NC(=O)[C@H](NC(=O)CCCC(C)C)C(C)C)C(C)C)C(C)C)[C@H](C)CC)[C@H](C)OC(=O)[C@H](C(C)C)NC1=O`
Result :: 1.76 µM
